Assay: Aqueous solubility of the compound in hepes buffer at pH 7.4
Assay type: physicochemical
Reported Property: solubility

>>> result("CCCS(=O)(=O)Nc1ccc(F)c(C(=O)c2c[nH]c3ncc(-c4cnc(N(C)C)nc4)cc23)c1F")
"Insoluble"
>>> result("COc1ccnc2[nH]cc(C(=O)c3c(F)ccc(NS(=O)(=O)c4cc(F)ccc4F)c3F)c12")
"Soluble"
>>> result("Cc1cnc2[nH]cc(C(=O)c3c(F)ccc(NS(=O)(=O)c4cccc(F)c4)c3F)c2c1")
"Soluble"
>>> result("O=C(c1c(F)ccc(NS(=O)(=O)c2cc(F)ccc2F)c1F)c1c[nH]c2nccc(Cl)c12")
"Soluble"
>>> result("CCCS(=O)(=O)Nc1ccc(F)c(C(=O)c2c[nH]c3ncc(-c4cnc(SC)nc4)cc23)c1F")
"Insoluble"

###

Test: Aqueous solubility of the compound in hepes buffer at pH 7.4
Assay type: physicochemical
Reported Property: solubility

>>> result("CCCS(=O)(=O)Nc1ccc(F)c(C(=O)c2c[nH]c3ncc(-c4cncnc4)cc23)c1F")
"Soluble"
>>> result("CCCS(=O)(=O)Nc1cccc(C(=O)c2c[nH]c3ncc(-c4cnc(OC)nc4)cc23)c1F")
"Insoluble"
>>> result("CCCS(=O)(=O)Nc1ccc(F)c(C(=O)c2c[nH]c3ncc(-c4cnn(CCN5CCOCC5)c4)cc23)c1F")
"Insoluble"
>>> result("N#Cc1cnc2[nH]cc(C(=O)c3cccc(NS(=O)(=O)c4ccccc4F)c3F)c2c1")
"Soluble"
>>> result("Cc1cnc2[nH]cc(C(=O)c3c(F)ccc(NS(=O)(=O)c4cccnc4)c3F)c2c1")
"Soluble"
>>> result("C#Cc1cnc2[nH]cc(C(=O)c3c(F)ccc(NS(=O)(=O)CCC)c3F)c2c1")
"Insoluble"
>>> result("N#Cc1cnc2[nH]cc(C(=O)c3c(F)ccc(NS(=O)(=O)c4ccccc4F)c3F)c2c1")
"Soluble"
>>> result("CCCS(=O)(=O)Nc1ccc(F)c(C(=O)c2c[nH]c3ncc(-c4ccc(C(=O)NC)nc4)cc23)c1F")
"Insoluble"
>>> result("N#Cc1cnc2[nH]cc(C(=O)c3cccc(NS(=O)(=O)c4cccc(F)c4)c3F)c2c1")
"Soluble"

###

Experiment: Aqueous solubility of the compound in simulated intestinal fluid at pH 4.5
Type: ADME
Conditions: simulated gi fluid
Reported Property: solubility

>>> result("Cc1cnc2[nH]cc(C(=O)c3c(F)ccc(NS(=O)(=O)c4cccc(F)c4)c3F)c2c1")
"Insoluble"
>>> result("CCCS(=O)(=O)Nc1ccc(F)c(C(=O)c2c[nH]c3ncc(-c4ccc(NC(C)=O)nc4)cc23)c1F")
"Insoluble"
>>> result("CCCS(=O)(=O)Nc1ccc(F)c(C(=O)c2c[nH]c3ncc(-c4ccc(C(=O)NCC)nc4)cc23)c1F")
"Insoluble"
>>> result("CCCS(=O)(=O)Nc1ccc(F)c(C(=O)c2c[nH]c3ncc(-c4ccc(OCCCN(C)C)nc4)cc23)c1F")
"Soluble"
>>> result("N#Cc1cnc2[nH]cc(C(=O)c3c(F)ccc(NS(=O)(=O)c4ccccc4F)c3F)c2c1")
"Soluble"
>>> result("CCCS(=O)(=O)Nc1ccc(F)c(C(=O)c2c[nH]c3ncc(-c4cncc(S(C)(=O)=O)c4)cc23)c1F")
"Insoluble"

###

Assay: Aqueous solubility of the compound in simulated gastric fluid at pH 1.5
Format: ADME
Conditions: simulated gi fluid
Reported Property: solubility

>>> result("O=C(c1c(F)ccc(NS(=O)(=O)c2cccc(F)c2)c1F)c1c[nH]c2nccc(Cl)c12")
"Insoluble"
>>> result("CCCS(=O)(=O)Nc1ccc(F)c(C(=O)c2c[nH]c3ncc(-c4ccc(C)nc4)cc23)c1F")
"Soluble"
>>> result("N#Cc1cnc2[nH]cc(C(=O)c3cccc(NS(=O)(=O)c4cccnc4)c3F)c2c1")
"Soluble"
>>> result("CCCS(=O)(=O)Nc1ccc(F)c(C(=O)c2c[nH]c3ncc(-c4ccc(N(C)C)nc4)cc23)c1F")
"Soluble"
>>> result("CCCS(=O)(=O)Nc1ccc(F)c(C(=O)c2c[nH]c3ncc(-c4ccc(C(=O)NC5CC5)nc4)cc23)c1F")
"Insoluble"
>>> result("CCCS(=O)(=O)Nc1ccc(F)c(C(=O)c2c[nH]c3ncc(-c4cnc(N5CCCC5)nc4)cc23)c1F")
"Soluble"
>>> result("CCCS(=O)(=O)Nc1ccc(F)c(C(=O)c2c[nH]c3ncc(-c4cnn(Cc5ccccc5)c4)cc23)c1F")
"Insoluble"
>>> result("CCCS(=O)(=O)Nc1ccc(F)c(C(=O)c2c[nH]c3ncc(-c4cncnc4)cc23)c1F")
"Soluble"

###

Test: Aqueous solubility of the compound in simulated intestinal fluid at pH 6.8
Format: ADME
Conditions: simulated gi fluid
Reported Property: solubility

>>> result("COc1ccnc2[nH]cc(C(=O)c3c(F)ccc(NS(=O)(=O)c4ccccc4F)c3F)c12")
"Soluble"
>>> result("CCCS(=O)(=O)Nc1ccc(F)c(C(=O)c2c[nH]c3ncc(-c4ccc(N5CCCC5)nc4)cc23)c1F")
"Insoluble"
>>> result("CCCS(=O)(=O)Nc1ccc(F)c(C(=O)c2c[nH]c3ncc(-c4ccc(C(=O)NCC)nc4)cc23)c1F")
"Insoluble"
>>> result("CCCS(=O)(=O)Nc1ccc(F)c(C(=O)c2c[nH]c3ncc(-c4ccc(OCCN5CCCC5)nc4)cc23)c1F")
"Insoluble"
>>> result("CCCS(=O)(=O)Nc1ccc(F)c(C(=O)c2c[nH]c3ncc(-c4ccc(C(=O)NC)nc4)cc23)c1F")
"Insoluble"
>>> result("CCCS(=O)(=O)Nc1ccc(F)c(C(=O)c2c[nH]c3ncc(-c4cnc(C)nc4)cc23)c1F")
"Soluble"
>>> result("N#Cc1cnc2[nH]cc(C(=O)c3cccc(NS(=O)(=O)c4cccnc4)c3F)c2c1")
"Soluble"
>>> result("CCCS(=O)(=O)Nc1ccc(F)c(C(=O)c2c[nH]c3ncc(-c4ccnc(F)c4)cc23)c1F")
"Insoluble"

###

Experiment: Aqueous solubility of the compound in simulated intestinal fluid at pH 6.8
Type: ADME
Settings: simulated gi fluid
Reported Property: solubility

>>> result("COc1ncc(-c2cnc3[nH]cc(C(=O)c4c(F)ccc(NS(=O)(=O)c5cccc(F)c5)c4F)c3c2)cn1")
"Insoluble"
>>> result("CCCS(=O)(=O)Nc1ccc(F)c(C(=O)c2c[nH]c3ncc(-c4ccc(F)nc4)cc23)c1F")
"Insoluble"
>>> result("CCCS(=O)(=O)Nc1ccc(F)c(C(=O)c2c[nH]c3ncc(-c4cnc(N5CCOCC5)nc4)cc23)c1F")
"Insoluble"
>>> result("N#Cc1cnc2[nH]cc(C(=O)c3c(F)ccc(NS(=O)(=O)c4ccccc4F)c3F)c2c1")
"Soluble"
>>> result("O=C(c1c(F)ccc(NS(=O)(=O)c2c(F)cccc2F)c1F)c1c[nH]c2ncc(Cl)cc12")
"Soluble"
>>> result("CCCS(=O)(=O)Nc1ccc(F)c(C(=O)c2c[nH]c3ncc(-c4ccc(C)nc4)cc23)c1F")
"Insoluble"
>>> result("CCCS(=O)(=O)Nc1ccc(F)c(C(=O)c2c[nH]c3ncc(-c4ccc(S(C)(=O)=O)cc4)cc23)c1F")
"Insoluble"
>>> result("CCCS(=O)(=O)Nc1cccc(C(=O)c2c[nH]c3ncc(-c4cnc(N(C)C)nc4)cc23)c1F")
"Insoluble"

###

Test: Aqueous solubility of the compound in simulated gastric fluid at pH 1.5
Assay type: ADME
Conditions: simulated gi fluid
Reported Property: solubility

>>> result("COc1ccnc2[nH]cc(C(=O)c3c(F)ccc(NS(=O)(=O)c4cccc(F)c4)c3F)c12")
"Soluble"
>>> result("CCCS(=O)(=O)Nc1cccc(C(=O)c2c[nH]c3ncc(-c4cnc(OC)nc4)cc23)c1F")
"Insoluble"
>>> result("O=C(c1c(F)ccc(NS(=O)(=O)c2cccnc2)c1F)c1c[nH]c2ncc(Cl)cc12")
"Soluble"
>>> result("O=C(c1c(F)ccc(NS(=O)(=O)c2ccccc2F)c1F)c1c[nH]c2nccc(Cl)c12")
"Soluble"
>>> result("CCCS(=O)(=O)Nc1ccc(F)c(C(=O)c2c[nH]c3ncc(-c4ccc(OCCCN(C)C)nc4)cc23)c1F")
"Soluble"
>>> result("Cc1cnc2[nH]cc(C(=O)c3c(F)ccc(NS(=O)(=O)c4cccc(F)c4)c3F)c2c1")
"Soluble"
>>> result("O=C(c1c(F)ccc(NS(=O)(=O)c2c(F)cccc2F)c1F)c1c[nH]c2ncc(Cl)cc12")
"Soluble"
>>> result("CCCS(=O)(=O)Nc1ccc(F)c(C(=O)c2c[nH]c3ncc(-c4ccc(NC(C)=O)nc4)cc23)c1F")
"Soluble"
>>> result("Cc1cnc2[nH]cc(C(=O)c3c(F)ccc(NS(=O)(=O)c4ccccc4F)c3F)c2c1")
"Insoluble"

###

Experiment: Aqueous solubility of the compound in simulated intestinal fluid at pH 6.8
Assay type: ADME
Details: simulated gi fluid
Reported Property: solubility

>>> result("N#Cc1cnc2[nH]cc(C(=O)c3c(F)ccc(NS(=O)(=O)c4ccccc4)c3F)c2c1")
"Soluble"
>>> result("CCCS(=O)(=O)Nc1ccc(F)c(C(=O)c2c[nH]c3ncc(-c4ccc(N(C)C)nc4)cc23)c1F")
"Soluble"
>>> result("CCCS(=O)(=O)Nc1ccc(F)c(C(=O)c2c[nH]c3ncc(-c4cncnc4)cc23)c1F")
"Soluble"
>>> result("N#Cc1cnc2[nH]cc(C(=O)c3cccc(NS(=O)(=O)c4ccccc4)c3F)c2c1")
"Soluble"
>>> result("Cc1cnc2[nH]cc(C(=O)c3c(F)ccc(NS(=O)(=O)c4c(F)cccc4F)c3F)c2c1")
"Soluble"
>>> result("CCCS(=O)(=O)Nc1ccc(F)c(C(=O)c2c[nH]c3ncc(-c4cnn(CCN5CCOCC5)c4)cc23)c1F")
"Insoluble"
>>> result("Cc1cnc2[nH]cc(C(=O)c3c(F)ccc(NS(=O)(=O)c4cc(F)ccc4F)c3F)c2c1")
"Soluble"
>>> result("N#Cc1cnc2[nH]cc(C(=O)c3cccc(NS(=O)(=O)c4cccc(F)c4)c3F)c2c1")
"Soluble"
>>> result("O=C(c1c(F)ccc(NS(=O)(=O)c2cccnc2)c1F)c1c[nH]c2ncc(Cl)cc12")
"Soluble"
>>> result("CCCS(=O)(=O)Nc1cccc(C(=O)c2c[nH]c3ncc(-c4cnc(OC)nc4)cc23)c1F")
"Insoluble"
